Test system: A. baumannii ATCC15308
Test: MIC determination, broth microdilution (CLSI)
Format: cell-based
Conditions: Acinetobacter baumannii, ATCC15308, strain 9
Quantity Measured: MIC (µg/mL)

{"Compound": "N=C(N)c1ccc(OCCO/N=C(\\C(=O)NC2C(=O)N(OS(=O)(=O)O)C23CCCC3)c2csc(N)n2)cc1 (centres unmarked)", "Quantitative Readout": 4}
{"Compound": "N=C(N)c1ccc(OCCO/N=C(\\C(=O)N[C@@H]2C(=O)N(S(=O)(=O)O)[C@@H]2C(N)=O)c2csc(N)n2)cc1", "Quantitative Readout": 4}
{"Compound": "CC1(C)[C@H](NC(=O)/C(=N\\O[C@@H](COc2ccc(C(=N)NC3CCCNC3)cc2)C(=O)O)c2csc(N)n2)C(=O)N1OS(=O)(=O)O (some centres unmarked)", "Quantitative Readout": 1}
{"Compound": "C[C@H]1[C@H](NC(=O)/C(=N\\OCCOc2ccc(C(=N)N)cc2F)c2csc(N)n2)C(=O)N1S(=O)(=O)O", "Quantitative Readout": 4}
{"Compound": "CC1(C)[C@H](NC(=O)/C(=N\\OC(COc2ccc(C(=N)N)cc2)C(N)=O)c2csc(N)n2)C(=O)N1OS(=O)(=O)O (some centres unmarked)", "Quantitative Readout": 2}
{"Compound": "C[C@H]1[C@H](NC(=O)/C(=N\\OCCCOc2ccc(C(=N)N)cc2)c2csc(N)n2)C(=O)N1S(=O)(=O)O", "Quantitative Readout": 4}
{"Compound": "CC1(C)[C@H](NC(=O)/C(=N\\O[C@@H](COc2ccc(C(=N)N[C@H]3CCNC3)cc2)C(=O)O)c2csc(N)n2)C(=O)N1OS(=O)(=O)O", "Quantitative Readout": 1}
{"Compound": "CC1(C)[C@H](NC(=O)/C(=N\\OCCOc2ccc(C(=N)NC(CN)CN)cc2)c2csc(N)n2)C(=O)N1OS(=O)(=O)O", "Quantitative Readout": 1}
{"Compound": "CN1CC[C@H](NC(=N)c2ccc(OC[C@H](O/N=C(\\C(=O)N[C@@H]3C(=O)N(OS(=O)(=O)O)C3(C)C)c3csc(N)n3)C(=O)O)cc2)C1", "Quantitative Readout": 4}
{"Compound": "Cc1cc(OCCO/N=C(\\C(=O)N[C@@H]2C(=O)N(S(=O)(=O)O)[C@H]2C)c2csc(N)n2)ccc1C(=N)N", "Quantitative Readout": 2}
{"Compound": "CC1(C)[C@H](NC(=O)/C(=N\\OC(COc2ccc(C(=N)NC3CCCNC3)cc2)C(=O)O)c2csc(N)n2)C(=O)N1OS(=O)(=O)O (stereo in doubt)", "Quantitative Readout": 1}
{"Compound": "Cc1cc(OCCO/N=C(\\C(=O)N[C@@H]2C(=O)N(OS(=O)(=O)O)C2(C)C)c2csc(N)n2)ccc1C(=N)N", "Quantitative Readout": 1}
{"Compound": "CC1(C)[C@H](NC(=O)/C(=N\\OCCOc2ccc(C(=N)N[C@H]3CCNC3)cc2)c2csc(N)n2)C(=O)N1OS(=O)(=O)O", "Quantitative Readout": 0.5}
{"Compound": "C[C@H]1[C@H](NC(=O)/C(=N\\OCCCOc2ccc(NC(=N)N)cc2)c2csc(N)n2)C(=O)N1S(=O)(=O)O", "Quantitative Readout": 4}
{"Compound": "C[C@H]1[C@H](NC(=O)/C(=N\\OCCOc2ccc(C(=N)NCCO)cc2)c2csc(N)n2)C(=O)N1S(=O)(=O)O", "Quantitative Readout": 2}
{"Compound": "C[C@@H]1[C@H](NC(=O)/C(=N\\OCCOc2ccc(C(=N)N)cc2)c2csc(N)n2)C(=O)N1S(=O)(=O)O", "Quantitative Readout": 0.5}
{"Compound": "CNC(=N)c1ccc(OCCO/N=C(\\C(=O)N[C@@H]2C(=O)N(S(=O)(=O)O)[C@H]2C)c2csc(N)n2)cc1", "Quantitative Readout": 2}
{"Compound": "C[C@H]1[C@H](NC(=O)/C(=N\\OCc2cc(C(=N)N)cs2)c2csc(N)n2)C(=O)N1S(=O)(=O)O", "Quantitative Readout": 2}
{"Compound": "C[C@H]1[C@H](NC(=O)/C(=N\\OCCOc2ccc(C(=N)N)cc2)c2csc(N)n2)C(=O)N1S(=O)(=O)O", "Quantitative Readout": 0.5}
{"Compound": "CC1(C)[C@H](NC(=O)/C(=N\\OCCOc2ccc(C3=NCCN3)cc2)c2csc(N)n2)C(=O)N1OS(=O)(=O)O", "Quantitative Readout": 2}
{"Compound": "CC1(C)[C@H](NC(=O)/C(=N\\OCCSc2ccc(C(=N)N)cc2)c2csc(N)n2)C(=O)N1OS(=O)(=O)O", "Quantitative Readout": 2}
{"Compound": "C[C@H]1[C@H](NC(=O)/C(=N\\OCCOc2ccc(C(=N)N)cc2)c2csc(N)n2)C(=O)N1OS(=O)(=O)O", "Quantitative Readout": 2}
{"Compound": "CC1(C)[C@H](NC(=O)/C(=N\\OCCOc2ccc(C3=NCC(N)CN3)cc2)c2csc(N)n2)C(=O)N1OS(=O)(=O)O (some centres unmarked)", "Quantitative Readout": 2}
{"Compound": "C[C@H]1[C@H](NC(=O)/C(=N\\OCCOc2ccc(C(=N)N)nn2)c2csc(N)n2)C(=O)N1S(=O)(=O)O", "Quantitative Readout": 0.5}
{"Compound": "CC(C)NC(=N)c1ccc(OCCO/N=C(\\C(=O)N[C@@H]2C(=O)N(S(=O)(=O)O)[C@H]2C)c2csc(N)n2)cc1", "Quantitative Readout": 4}
{"Compound": "C[C@H]1[C@H](NC(=O)/C(=N\\OCCSc2ccc(C(=N)N)cc2)c2csc(N)n2)C(=O)N1S(=O)(=O)O", "Quantitative Readout": 1}

---

Reported log10(MIC) values are given for each entry in this list.
Tested on: P. aeruginosa PAO1
Experiment: MIC determination, broth microdilution (CLSI)
Format: cell-based
Conditions: Pseudomonas aeruginosa, PAO1, strain 6
Quantity Measured: log10(MIC) (log10 of the value in µg/mL)

{"Molecule": "CNC(=N)c1ccc(OCCO/N=C(\\C(=O)N[C@@H]2C(=O)N(S(=O)(=O)O)[C@H]2C)c2csc(N)n2)cc1 [Example 68]", "log10(MIC)": 0.30}
{"Molecule": "Cc1sc(C(=N)N)nc1OCCO/N=C(\\C(=O)N[C@@H]1C(=O)N(OS(=O)(=O)O)C1(C)C)c1csc(N)n1 [Example 74]", "log10(MIC)": 1.20}
{"Molecule": "CC1(C)[C@H](NC(=O)/C(=N\\OCCOc2cnc(C(=N)N)c(O)c2)c2csc(N)n2)C(=O)N1OS(=O)(=O)O [Example 33]", "log10(MIC)": 0.90}
{"Molecule": "Cc1cc(OCCO/N=C(\\C(=O)N[C@@H]2C(=O)N(S(=O)(=O)O)[C@H]2C)c2csc(N)n2)ccc1C(=N)N [Example 14]", "log10(MIC)": 0.60}
{"Molecule": "C[C@H]1[C@H](NC(=O)/C(=N\\OCC(C)(C)Oc2ccc(C(=N)N)cc2)c2csc(N)n2)C(=O)N1S(=O)(=O)O [Example 17]", "log10(MIC)": 0.90}
{"Molecule": "CC1(C)[C@H](NC(=O)/C(=N\\OCc2ccc(C(=N)N)cc2)c2csc(N)n2)C(=O)N1OS(=O)(=O)O [Example 57]", "log10(MIC)": 1.51}
{"Molecule": "CC1(C)[C@H](NC(=O)/C(=N\\OC(COc2ccc(C(=N)NC3CCCNC3)cc2)C(=O)O)c2csc(N)n2)C(=O)N1OS(=O)(=O)O (stereo in doubt) [Example 89]", "log10(MIC)": 0.00}
{"Molecule": "C[C@H]1[C@H](NC(=O)/C(=N\\OCCOc2ccc(C(=N)N)cc2COC=O)c2csc(N)n2)C(=O)N1S(=O)(=O)O [Example 60]", "log10(MIC)": 1.20}
{"Molecule": "CC1(C)[C@H](NC(=O)/C(=N\\O[C@@H](COc2ccc(C(=N)NC3CNC3)cc2)C(=O)O)c2csc(N)n2)C(=O)N1OS(=O)(=O)O [Example 107]", "log10(MIC)": 0.00}
{"Molecule": "CC1(C)[C@H](NC(=O)/C(=N\\OCCOc2ccc(C3=NCC(N)CN3)cc2)c2csc(N)n2)C(=O)N1OS(=O)(=O)O (some centres unmarked) [Example 86]", "log10(MIC)": 0.60}
{"Molecule": "C[C@H]1[C@H](NC(=O)/C(=N\\OCCOc2ccc(C(=N)NCCO)cc2)c2csc(N)n2)C(=O)N1S(=O)(=O)O [Example 69]", "log10(MIC)": 0.60}
{"Molecule": "CC1(C)[C@H](NC(=O)/C(=N\\OCCOc2ccnc(C(=N)N)c2)c2csc(N)n2)C(=O)N1OS(=O)(=O)O [Example 15]", "log10(MIC)": 0.90}
{"Molecule": "CC1(C)[C@H](NC(=O)/C(=N\\O[C@@H](COc2ccc(C(=N)N[C@@H]3CCCNC3)cc2)C(=O)O)c2csc(N)n2)C(=O)N1OS(=O)(=O)O [Example 88]", "log10(MIC)": 0.00}
{"Molecule": "CC1(C)[C@H](NC(=O)/C(=N\\O[C@@H](COc2ccc(C(=N)NC(CN)CN)cc2)C(=O)O)c2csc(N)n2)C(=O)N1OS(=O)(=O)O [Example 102]", "log10(MIC)": 0.00}
{"Molecule": "C[C@@H]1[C@H](NC(=O)/C(=N\\OCCOc2ccc(C(=N)N)cc2)c2csc(N)n2)C(=O)N1OS(=O)(=O)O [Example 10]", "log10(MIC)": 0.90}
{"Molecule": "CC(=N)N1CC[C@H](NC(=N)c2ccc(OCCO/N=C(\\C(=O)N[C@@H]3C(=O)N(OS(=O)(=O)O)C3(C)C)c3csc(N)n3)cc2)C1 [Example 43]", "log10(MIC)": 0.90}
{"Molecule": "C[C@H]1[C@H](NC(=O)/C(=N\\OCCOc2ccc(C(=N)N)c(O)c2)c2csc(N)n2)C(=O)N1S(=O)(=O)O [Example 2]", "log10(MIC)": 0.30}
{"Molecule": "C[C@H]1[C@H](NC(=O)/C(=N\\OCCOc2ccc(C(=N)NO)cc2)c2csc(N)n2)C(=O)N1S(=O)(=O)O [Example 21]", "log10(MIC)": 1.20}
{"Molecule": "CC1(C)[C@H](NC(=O)/C(=N\\OCCOc2ccc(C(=N)N)nc2)c2csc(N)n2)C(=O)N1OS(=O)(=O)O [Example 4]", "log10(MIC)": 0.60}
{"Molecule": "CC1(C)[C@H](NC(=O)/C(=N\\OCCOc2ccc(C(=N)NCC(=O)O)cc2)c2csc(N)n2)C(=O)N1OS(=O)(=O)O [Example 73]", "log10(MIC)": 1.20}
{"Molecule": "CC1(C)[C@H](NC(=O)/C(=N\\O[C@@H](COc2ccc(C(=N)NCc3ncc[nH]3)cc2)C(=O)O)c2csc(N)n2)C(=O)N1OS(=O)(=O)O [Example 104]", "log10(MIC)": 1.20}
{"Molecule": "C[C@H]1[C@H](NC(=O)/C(=N\\OCCOc2ccc(C(=N)N)cc2Cl)c2csc(N)n2)C(=O)N1S(=O)(=O)O [Example 20]", "log10(MIC)": 0.90}
{"Molecule": "C[C@H]1[C@H](NC(=O)/C(=N\\OCCOc2nc(C(=N)N)cs2)c2csc(N)n2)C(=O)N1S(=O)(=O)O [Example 31]", "log10(MIC)": 0.90}
{"Molecule": "C[C@H]1[C@H](NC(=O)/C(=N\\OCCOc2ccc(C(=N)N)cn2)c2csc(N)n2)C(=O)N1S(=O)(=O)O [Example 5]", "log10(MIC)": 0.60}
{"Molecule": "C[C@@H]1[C@H](NC(=O)/C(=N\\OCCCOc2ccc(C(=N)N)cc2)c2csc(N)n2)C(=O)N1S(=O)(=O)O [Example 48]", "log10(MIC)": 0.90}
{"Molecule": "CC1(C)[C@H](NC(=O)/C(=N\\OCCCOc2ccc(C(=N)N)cc2)c2csc(N)n2)C(=O)N1OS(=O)(=O)O [Example 58]", "log10(MIC)": 1.20}

# credit: patent US9556165B2
